Recorded mass density by entry
# conditionDetails: 278.15 K; 100 kPa; Liquid; Vibrating tube method
Value expressed in kg/m3; do not type the unit.

CCCCCO :: 825.2
CCCCCCCO :: 832.4

Read the entry CCCO and write its reported mass density.
815.7

---

Parameter: mass density. Scope: all listed entries.
# conditionDetails: 348.15 K; 15000 kPa; Liquid; Vibrating tube method
Just the number please, in kg/m3, no unit attached.

Some compounds with known mass density results, for comparison:
CCCCCCCCCCCO :: 804.3
CCO :: 756.6
CCCCCCCCCO :: 799.7
CCCCCCO :: 790.2
CCCCCO :: 785.5
CCCO :: 772.5

Return value of mass density for input CCCCCCCCCCO , no commentary.
802

Query mass density for CCCCCCCCO
797.4

Look up mass density of CCCCO and report it.
779.8

Give the reported value of mass density for this record: CCCCCCCO
794.2

---

# conditionDetails: 288.15 K; 10000 kPa; Liquid; Vibrating tube method
measurementLabel: mass density (kg/m3)
Give the value, in units of kg/m3, as a plain number.

Annotate the compound CCCO [propan-1-ol] with its measured mass density.
815.3

Return mass density for the following compound: CCO [ethanol]
801.8

Given CCCCCCCCO [octan-1-ol] , respond with its mass density.
834.4

Give reported mass density value for CCCCCCO [hexan-1-ol]
828.5

Tell me mass density reported for CCCCCCCCCCO [decan-1-ol]
838

Give reported mass density value for CCCCO [butan-1-ol]
820.5

State its mass density for this compound: CCCCCCCCCO [nonan-1-ol]
835.9

Note mass density for the compound shown: CCCCCCCO [heptan-1-ol]
831.7

In one line, give reported mass density of the entry CCCCCO [pentan-1-ol] .
824.8

---

# conditionDetails: 278.15 K; 5000 kPa; Liquid; Vibrating tube method
measurementLabel: mass density (kg/m3)
Report the value in kg/m3 with no unit label.

CCCCCCO :: 832
CCCCCCCCO :: 838
CCCO :: 819.4

# next compound below
Answer with reported mass density of CCCCCCCCCO
839.7

---

Readings of mass density for the listed compounds
# conditionDetails: 358.15 K; 55000 kPa; Liquid; Vibrating tube method
The reply should contain only the number, in kg/m3.

Previously resolved entries follow.
CCO :: 783.3
CCCCO :: 802.3
CCCCCO :: 807
CCCCCCCCCCCO :: 822.4
CCCCCCCCCO :: 818.6
CCCO :: 796.4
CCCCCCCO :: 814.1
CCCCCCCCO :: 816.7
CCCCCCO :: 810.8

// next item, mass density requested
Read off the recorded mass density for CCCCCCCCCCO
820.5

---

# conditionDetails: 338.15 K; 10000 kPa; Liquid; Vibrating tube method
measurementLabel: mass density (kg/m3)
Field format: number, assumed kg/m3, no unit text.

Reference set (3 entries):
CCCO :: 776.1
CCCCCCCO :: 797.5
CCCCCCCCO :: 800.8

Fill in reported mass density for this entry: CCO
760.1

Give recorded mass density. CCCCO
783.2

Determine from records and report mass density for CCCCCO
788.9

---

# conditionDetails: 308.15 K; 100 kPa; Liquid; Vibrating tube method
measurementLabel: mass density (kg/m3)
API: value field is a number in kg/m3; no unit string.

CCCCCCCCCCO [decan-1-ol] :: 818.7
CCCCO [butan-1-ol] :: 798
CCCCCCCCO [octan-1-ol] :: 814.5
CCCCCCCO [heptan-1-ol] :: 811.4

# return recorded mass density for input CCCO [propan-1-ol]
791.6

Fill in reported mass density for this entry: CCCCCCCCCCCO [1-undecanol]
820.9

Kindly indicate its recorded mass density. Item: CCCCCO [pentan-1-ol]
803.3

Look up and report measured mass density for this entry: CCO [ethanol]
776.1

Please report mass density for the following molecule: CCCCCCCCCO [nonan-1-ol]
816.5

Identify the reported mass density for the following entry. CCCCCCO [hexan-1-ol]
807.8

---

# conditionDetails: 318.15 K; 45000 kPa; Liquid; Vibrating tube method
measurementLabel: mass density (kg/m3)
All answers are understood in kg/m3, so give the number only.

State, in one line, measured mass density of CCCCCO [pentan-1-ol]
826.3

---

mass density for assorted compounds
# conditionDetails: 318.15 K; 5000 kPa; Liquid; Vibrating tube method
Kindly provide the numeric value in kg/m3 only, without the unit symbol.

Entry CCCCCCCCCCCO needs its mass density filled in; supply it.
817.4

Supply mass density value. Item: CCCO
787.9

Provide one value: measured mass density of CCCCCCCCCO
813.2

Consider the compound CCCCCCCO . State its measured mass density.
807.9

Could you please provide reported mass density for CCCCCCCCCCO ? Thanks!
815.3

---

# conditionDetails: 318.15 K; 15000 kPa; Liquid; Vibrating tube method
In this section, each of the molecules is paired with its reported mass density.
The response must be a number in kg/m3 with no trailing unit.

CCCCCCCCO :: 817.7
CCCCCCCCCCO :: 821.7

Entry CCCCCCCCCO needs its mass density filled in; supply it.
819.7

Supply reported mass density belonging to this molecule: CCCO
796.3

Return mass density (reported value) for this molecule: CCCCCCCO
814.8

---

# conditionDetails: 308.15 K; 5000 kPa; Liquid; Vibrating tube method
Numbers after ± are expanded uncertainties.
List of mass density values.
Number first, unit second.

Example entries and their recorded answers appear below.
CCCCCCCCCCO [decan-1-ol] :: 821.9 ± 2.4 kg/m3
CCCCO [butan-1-ol] :: 802 ± 2.4 kg/m3
CCO [ethanol] :: 780.9 ± 2.4 kg/m3

Note down mass density recorded for CCCCCCCCO [octan-1-ol]
817.8 ± 2.4 kg/m3

Fill in mass density for record CCCCCCO [hexan-1-ol]
811.4 ± 2.4 kg/m3

Please look at this compound and report its mass density: CCCO [propan-1-ol]
795.8 ± 2.4 kg/m3

Please look at this compound and report its mass density: CCCCCCCCCO [nonan-1-ol]
819.8 ± 2.5 kg/m3

Look up and report measured mass density for this entry: CCCCCCCO [heptan-1-ol]
814.7 ± 2.5 kg/m3

Retrieve mass density measured for CCCCCCCCCCCO [1-undecanol] and print it.
824 ± 2.4 kg/m3

Return reported mass density. Input compound: CCCCCO [pentan-1-ol]
807 ± 2.4 kg/m3

---

# conditionDetails: 298.15 K; 50000 kPa; Liquid; Vibrating tube method
Listed below: mass density values for each entry.
Field format: number, assumed kg/m3, no unit text.

CCCCCCO :: 844.6
CCCCCCCCCCO :: 852.4
CCO :: 822.3
CCCCCCCCCCCO :: 854.2
CCCO :: 833.8
CCCCCO :: 841.4
CCCCCCCCO :: 849.4
CCCCCCCO :: 847.2
CCCCCCCCCO :: 850.5

Next molecule, please.
Find the measured mass density of CCCCO and report it.
838.2

---

Each entry below lists one item and its recorded mass density value.
# conditionDetails: 358.15 K; 25000 kPa; Liquid; Vibrating tube method
Give your result in kg/m3 as a bare value.

Use the examples below as a reference point.
CCCCCCCCCO :: 799.9
CCCCCCO :: 790.7
CCCO :: 773.3
CCCCCCCCCCO :: 802.3
CCO :: 758

Annotate the compound CCCCCO with its measured mass density.
786.1

Look up and report measured mass density for this entry: CCCCCCCO
794.6

Specify reported mass density for the compound shown: CCCCCCCCO
797.7

Supply reported mass density belonging to this compound: CCCCO
780.4

Provide measured mass density value, entry: CCCCCCCCCCCO
804.4

---

# conditionDetails: 288.15 K; 25000 kPa; Liquid; Vibrating tube method
measurementLabel: mass density (kg/m3)
// return numeric value only (unit: kg/m3, not printed)

Observe how each entry below is paired with its result.
CCCCCCCO [heptan-1-ol] :: 840.4
CCO [ethanol] :: 813.1
CCCCCCCCCO [nonan-1-ol] :: 844

For the compound CCCCCCCCO [octan-1-ol] , report mass density.
842.8

Read off the recorded mass density for CCCO [propan-1-ol]
825.5

---

This listing pairs molecules with measured mass density.
# conditionDetails: 288.15 K; 15000 kPa; Liquid; Vibrating tube method
Field: numeric (kg/m3). Do not append units.

Solved cases below.
CCCO :: 818.9
CCCCCCCCCO :: 838.7
CCCCCCCO :: 834.7

For the molecule CCCCCCCCO , report mass density.
837.3

Given CCCCCO , respond with its mass density.
828

Tell me mass density reported for CCCCCCCCCCO
840.8

Supply recorded mass density for CCCCCCO here.
831.6

Consider the molecule CCO . State its measured mass density.
805.8

Consider the molecule CCCCO and give its recorded mass density.
823.9
